Here the recorded pIC50 is given for each entry.
target: Human immunodeficiency virus type 1 protease (Human immunodeficiency virus 1, UniProt Q72874)
// pIC50 here means minus log10 of the molar concentration (mol/L)

>>> measured_number("CCNC(=O)[C@@H](NC(=O)Cc1ccccc1)[C@@H]1N[C@@H](C(=O)NCCNC(=O)[C@@H]2N[C@@H]([C@H](NC(=O)Cc3ccccc3)C(=O)NCC)SC2(C)C)C(C)(C)S1")
8.32
>>> measured_number("CC1(C)S[C@H]([C@H](NC(=O)Cc2ccccc2)C(N)=O)N[C@H]1C(=O)NCCNC(=O)[C@@H]1N[C@@H]([C@H](NC(=O)Cc2ccccc2)C(N)=O)SC1(C)C")
8.52
>>> measured_number("CC1(C)S[C@H]([C@H](NC(=O)Cc2ccccc2)C(=O)NCc2ccccc2)N[C@H]1C(=O)NCCNC(=O)[C@@H]1N[C@@H]([C@H](NC(=O)Cc2ccccc2)C(=O)NCc2ccccc2)SC1(C)C")
9.05
>>> measured_number("COC(=O)[C@@H](NC(=O)Cc1ccccc1)[C@@H]1N[C@@H](C(=O)NCCNC(=O)[C@@H]2N[C@@H]([C@H](NC(=O)Cc3ccccc3)C(=O)OC)SC2(C)C)C(C)(C)S1")
7.22
>>> measured_number("COC(=O)[C@@H](NC(=O)Cc1ccccc1)[C@@H]1N[C@@H](C(=O)NCCNC(=O)[C@@H]2N3C(=O)C(NC(=O)Cc4ccccc4)[C@H]3SC2(C)C)C(C)(C)S1 (stereo partly specified)")
6.30

Shifting focus to the compound that follows.
Lab note: measured pIC50 of `COC(=O)[C@@H](NC(=O)Cc1ccccc1)[C@@H]1N[C@@H](C(=O)NNC(=O)[C@@H]2N[C@@H]([C@H](NC(=O)Cc3ccccc3)C(=O)OC)SC2(C)C)C(C)(C)S1` was 5.17

###

Here the recorded pIC50 is given for each entry.
molecular target: Human immunodeficiency virus type 1 protease (Human immunodeficiency virus 1)
pIC50: −log10 of the molar value.

These recorded examples may help you get a feel for the data.
>>> result("COC(=O)[C@@H](NC(=O)Cc1ccccc1)[C@@H]1N[C@@H](C(=O)NCCCNC(=O)[C@@H]2N[C@@H]([C@H](NC(=O)Cc3ccccc3)C(=O)OC)SC2(C)C)C(C)(C)S1")
"< 4.92"
>>> result("COC(=O)[C@@H](NC(=O)Cc1ccccc1)[C@@H]1N[C@@H](C(=O)NCCNC(C)=O)C(C)(C)S1")
"< 4.26"
>>> result("CC1(C)S[C@@H]2[C@H](NC(=O)Cc3ccccc3)C(=O)N2[C@H]1C(=O)NCCNC(=O)[C@@H]1N2C(=O)[C@@H](NC(=O)Cc3ccccc3)[C@H]2SC1(C)C")
"< 4.15"
>>> result("CCNC(=O)[C@@H]1N[C@@H]([C@H](NC(=O)Cc2ccccc2)C(=O)OC)SC1(C)C")
"< 4.20"

Shifting focus to the compound that follows.
Lab note: measured pIC50 of `CCNC(=O)[C@@H](NC(=O)Cc1ccccc1)[C@@H]1N[C@@H](C(=O)OCCOC(=O)[C@@H]2N[C@@H]([C@H](NC(=O)Cc3ccccc3)C(=O)NCC)SC2(C)C)C(C)(C)S1` was < 4.92
